# assay notes: Kinetic solubility (shake flask, McIlvaine buffer)
# Assay type: physicochemical
# cond: kinetic; McIlvaine buffer pH 6.8; 100 µM; 18 hours room temperature
endpoint: Solubility pH = 6.8 (µM)
Please give a number only; it is taken to be in µM.

{"compound": "Cc1ccc(C(=O)N2CC3(CCN(Cc4c[nH]c5cc(F)ccc45)CC3C)C2)cc1C (stereo not drawn)", "endpoint": "Solubility pH = 6.8", "unit text": "µM", "meas value": 88.2}
{"compound": "Cc1ccc(C(=O)N2CC3(CCN(Cc4ccc(F)c(F)c4)CC3)C2)cc1C", "endpoint": "Solubility pH = 6.8", "unit text": "µM", "meas value": 88.9}
{"compound": "Cc1ccc(C(=O)N2CC3(CCN(Cc4c[nH]c5cc(F)ccc45)CC3)C2)cc1C", "endpoint": "Solubility pH = 6.8", "unit text": "µM", "meas value": 87.0}

// returns reported Solubility pH = 6.8 for input "Cc1ccccc1C(=O)N1CC2(CCN(Cc3c[nH]c4cc(F)ccc34)CC2)C1"
87.7

// returns reported Solubility pH = 6.8 for input "Cc1ccc(C(=O)N2CC3(CCN(Cc4ccc(Cl)c(Cl)c4)CC3)C2)cc1C"
31.6

// returns reported Solubility pH = 6.8 for input "Cc1ccc(C(=O)N2CC3(CCN(Cc4n[nH]c5cc(F)ccc45)CC3)C2)cc1C"
83.1

// returns reported Solubility pH = 6.8 for input "O=C(c1ccc2c(c1)OCO2)N1CC2(CCN(Cc3c[nH]c4cc(F)ccc34)CC2)C1"
82.7

// returns reported Solubility pH = 6.8 for input "Cc1cccc(C(=O)N2CC3(CCN(Cc4c[nH]c5cc(F)ccc45)CC3)C2)c1"
87.0

// returns reported Solubility pH = 6.8 for input "Cc1ccc(C(=O)N2CC3(CCN(Cc4c[nH]c5cc(F)ccc45)CC3)C2)cc1"
85.3

Cited source for all entries: paper PMC11191600
